All figures here come from a melting point compilation (Tetko et al.; mined from patent text by program, amines drawn as free bases though some values may be those of a salt).

A collection of molecules and their measured melting point

Please review the following examples before continuing.
* Cc1ccc2c(S(C)(=O)=O)cn(CC3=NCCN3)c2c1 | > 300 °C
* O=C(O)CCCCOc1cccc(CNC(=O)C2Cc3ccccc3N2S(=O)(=O)c2ccc(-c3cccc(C(F)(F)F)c3)cc2)c1 (stereo not given) | 70 °C

Input: # query: melting point of entry CCOc1cc2c(Nc3cc(OC)c(Cl)cc3Cl)c(C#N)cnc2cc1NC(C)=O
Output: 245 to 248 °C

Input: Quick check: melting point of FC(F)C(F)(F)Oc1cccc(Nc2nccc(-c3ccncc3)n2)c1 ?
Output: 191 to 192 °C

###

// reported melting point for each item listed

• CCc1cc(-c2[nH]c3ccccc3c2CC)cc(CC)c1O = 96.3 to 96.7 °C
• COc1ccc(-n2cc(C(=O)O)c(=O)c3cc(F)c(F)c(F)c32)cc1 = 252 to 254 °C
• CN1CCN(c2ccc(S(=O)(=O)c3cccc(F)c3)c(N)c2)CC1 = 89 to 92 °C

Input: I'd like to know its melting point. The molecule in question is CC(C)c1nc(-c2ccccc2)c(C(C)C)c(-c2ccc(F)cc2)c1C=O
Output: 159 to 160 °C

Input: Using the record for O=C(O)CCNc1ccc(C(=O)c2ccccc2)cc1[N+](=O)[O-] , report its melting point.
Output: 170 to 175 °C

Input: Quick check: melting point of CC1(C)C(C=C2CC2(F)F)C1C(=O)O (stereo unspecified) ?
Output: 78.9 °C

Input: Any idea what melting point was measured for c1ccc(Cn2ncc3c(NCC4CCCCC4)c4ccccc4nc32)cc1 ?
Output: 254 to 256 °C

Input: What does the data say about its melting point? Entry: CS(=O)(=O)c1ccc(-c2ccc(C3C(CCC(O)c4ccc(F)cc4)C(=O)N3c3ccc(F)cc3)cc2)cc1 (stereo unspecified)
Output: 111 °C

###

Quantity: melting point

These solved cases illustrate the format of a correct answer.
- COC(=O)C1=C(COCCn2c(C)nc(C)c2C)Nc2[nH]c(N)nc(=O)c2C1c1ccccc1Cl (centres undefined): 225 to 227 °C
- CC(=O)OC(c1cc2n(n1)CCOC2=O)C1(Br)C(=O)N2C(C(=O)OCc3ccc([N+](=O)[O-])cc3)=CSC21 (centres undefined): 107 to 110 °C
- CCCCCCCNC(=O)N(C)c1ccc(C)c(-c2ccc(CCC(=O)O)cc2)c1: 104 °C
- NC1=NC(c2ccccc2)(c2cccc(Cc3ccc(F)cc3)c2)C2=NCCCN12 (centres undefined): 152 °C
- COC(=O)Nc1c(Cl)ccc(Br)c1F: 107 to 112 °C
- O=S(=O)(c1cc(Cl)cc(Cl)c1)n1ccc2c(N3CCN(Cc4ccccc4)CC3)cccc21: 162 to 163 °C

Moving on to another molecule below.
Input: Recorded melting point for CCOC(=O)C1=C(C)NC(CSC(=N)N)=C(C(=O)OCC)C1c1cccc([N+](=O)[O-])c1 (single isomer, unassigned; (+)) , please?
Output: 124 to 126 °C

###

Quantity: melting point (°C)

Example cases with answers are listed next.
* Cc1c(C(=O)Nc2ccc(N3CCC(N4CCOCC4)CC3)c(C#N)c2)cnn1Cc1ccccc1 | 155
* CCCCCCc1ccc(OCCCCCCCCCCCCCCCC(=O)NCCO)cc1O | 96.4

A. Oc1ccc(N2CCN(CCC3C=Cc4ccccc43)CC2)cc1 (stereo not given)
B. COc1cc(OCC(=O)O)c(C)cc1SCc1ccc(-c2c(C)cc(C)cc2C)cc1
Input: Lower value for measured melting point? Options: A , B // output: label of the selected item
Output: B
(B: 141 °C, A: 228 °C)

###

Quantity: melting point

Input: Look at this molecule and give its reported melting point. COc1cccc(C(C)n2nc(C(=O)O)c3c2-c2ccc(OCc4cncnc4)cc2CC3)c1 (stereo not given)
Output: 200 to 201 °C

Input: # get_value(readout='melting point', item= CCCCOCCOc1ccc(-c2ccc(N3CC=CC3)c(C=O)c2)cc1 )
Output: 79 to 81 °C

Input: So what does the record say about melting point for CCOc1ccc(N(c2ccccc2)C2(c3ccc(N(CC)Cc4ccccc4)cc3)OC(=O)c3cc(N(C)C)ccc32)cc1 (stereo not given) ?
Output: 148 to 152 °C

Input: Bench note: what melting point did Cc1nnc(-c2ccc3occ(-c4cc(Cl)ccc4F)c3c2)o1 show?
Output: 187 to 188 °C

Input: Item under review: CC1COC2(CCN(c3nc(=O)c4cc(C#N)cc([N+](=O)[O-])c4s3)CC2)O1 (stereo not given) . Reported melting point?
Output: 251 to 253 °C

###

Recorded measurements of melting point, one per entry

A selection of reference data follows.
- COc1ccnc(CCc2nc3cc(I)cnc3[nH]2)c1: 207 to 208 °C
- CCOC(=O)C(CC)=C(C)NC(=O)Nc1cc(C(=O)OC(C)C)c(Cl)cc1F: 112 to 115 °C
- N#CC1(CCNC(=O)C(Cl)Cl)CC1: 97 to 100 °C
- COCC(=O)NNC(=O)c1cc2cccc(N(C)S(=O)(=O)c3cccs3)c2[nH]1: 148 to 149 °C
- CCCOc1ccc(S(=O)(=O)N2CCN(CCOC(C)=O)CC2)cc1-c1nc2c(CCCF)cn(CC)c2c(=O)[nH]1: 134 to 135 °C

Input: Need melting point of Nc1cc(C(=O)O)cc(S(N)(=O)=O)c1NCCc1ccccc1 , thanks.
Output: 194 to 195 °C

Input: Reported melting point, compound COc1ccc(OC2=CCNCC2)cc1 : ____
Output: 45 to 46 °C

Input: Need melting point of COc1ccc(C(=O)Nc2ccccc2)cc1NC(=S)Nc1ccc(C(F)(F)F)cc1 , thanks.
Output: 194 to 196 °C

Input: Tell me the measured melting point of COC(=O)C1Oc2ccccc2C(C)c2ccccc2O1 (stereo unspecified) , please.
Output: 95 to 120 °C

###

Quantity: melting point

Input: Query (compound): CCCc1ccc(S(=O)(=O)n2c(CCC(=O)OC)cc3cc(Cl)ccc32)cc1 ; field requested: melting point
Output: 85 to 88 °C

Input: Quick one: melting point for N#CCCNc1nonc1-c1nc2ccccc2n1CC(=O)c1ccc(Cl)cc1 ?
Output: 191 to 192 °C

Input: // melting point lookup, key: CCCCCCCCCCCCCCCCOc1cccc(O)c1
Output: 58 to 59 °C

Input: melting point lookup needed for Cc1cccc(NC(=O)NCC(=O)N2[C@@H](C(=O)OC(C)(C)C)C[C@@H](C(=O)N(C)C)[C@H]2c2ccccc2)c1 (racemic) , thanks.
Output: 199 °C

###

Catalogue of melting point values

Answered cases to consult:
* COc1cc2ncc(C#N)c(Nc3ccc(F)c(Cl)c3)c2cc1NC(=O)C=CCN1CCC(O)(O)CC1 | 225 to 230 °C
* COc1ccccc1SCCCCCCCCCC(=O)O | 65 to 66 °C
* Nc1ccc2nc(-c3ccc(Cl)cc3)sc2c1 | 166 to 168 °C
* Cc1nc(OCCO)c(C#N)c(N2CCc3ccccc3CC2)n1 | 86.7 to 92.3 °C
* Fc1ccc(-c2ccn(C3CCNC3)c2-c2ccncc2)cc1 (stereo not given) | 145 to 147 °C
* CS(=O)(=O)C(=C1CN(C(c2ccccc2)c2ccccc2)C1)c1cccc(Br)c1 | 200 °C

Input: melting point lookup needed for CN1[C@@H](c2cccc(Cl)c2)c2ccccc2S1(=O)=O , thanks.
Output: 164 °C

Input: Please report the recorded melting point for NC(=O)[C@@H]1[C@H](Nc2c(Br)cnc3[nH]c(-c4ccccc4-n4cccn4)nc23)[C@H]2C=C[C@@H]1C2 .
Output: 120 °C

Input: GET /values?readout=melting point&item= COc1ccc(NC(=O)c2ccc(F)c(F)c2)cc1NCc1cccs1
Output: 187 to 189 °C

Input: Given the compound Cc1cc(C(O)(C(F)(F)F)C(F)(F)F)cc(C)c1OCC(=O)O , what is its reported melting point?
Output: 118 to 120 °C

###

Quantity: melting point

These solved cases illustrate the format of a correct answer.
* COc1ccc(N2CCN(CC(=O)Nc3nc(-c4ccccc4)cs3)CC2)cc1 | 186 to 189 °C
* CCOC(=O)c1cc(S(=O)(=O)N2c3ccccc3-c3ccccc3C2C)ccc1OCC (stereo not given) | 113 to 115 °C

Input: # lookup: melting point of c1ccc([C@H]2OC[C@@H](OCc3ccccn3)CO2)cc1
Output: 95 to 98 °C

Input: Fill in the blank: the reported melting point of CCN1CCN(CCCOc2cc3ncc(C#N)c(Nc4cc(OC)c(Cl)cc4Cl)c3cc2OC)CC1 is ____.
Output: 102 to 104 °C

Input: Which melting point reading was recorded for the molecule O=C1CC(c2cccc(Cl)c2)c2cc(C(c3ccc(Cl)cc3)n3ccnc3)cc3c2N1CCC3 (stereo not given) ?
Output: 93.6 °C

Input: Can you share its melting point? I mean this molecule: Cn1cnc(=S)c(-c2cccc(C(F)(F)F)c2)c1
Output: 197 to 200 °C

Input: Name the recorded melting point for C=CC(=O)NCc1ccc(Cl)cc1 .
Output: 103 to 104 °C

Input: Return reported melting point; argument: COC(=O)c1cccc2cc(C)sc12
Output: 48 to 49 °C

Input: Given the molecule COC(=O)c1ccc(-c2cccc(N)c2)cc1 , what is its reported melting point?
Output: 145 to 148 °C

Input: Endpoint output: melting point of COCCOc1nc(Nc2cccc(NS(C)(=O)=O)c2)nc2[nH]cnc12 . Value?
Output: 201 to 204 °C
